Molecular target: Rlig1-AMP (Homo sapiens)
Construct: made in house; host or cells: E. coli BL21 (DE3), pET15b-Rlig1
Sequence (Q8N999 whole entry): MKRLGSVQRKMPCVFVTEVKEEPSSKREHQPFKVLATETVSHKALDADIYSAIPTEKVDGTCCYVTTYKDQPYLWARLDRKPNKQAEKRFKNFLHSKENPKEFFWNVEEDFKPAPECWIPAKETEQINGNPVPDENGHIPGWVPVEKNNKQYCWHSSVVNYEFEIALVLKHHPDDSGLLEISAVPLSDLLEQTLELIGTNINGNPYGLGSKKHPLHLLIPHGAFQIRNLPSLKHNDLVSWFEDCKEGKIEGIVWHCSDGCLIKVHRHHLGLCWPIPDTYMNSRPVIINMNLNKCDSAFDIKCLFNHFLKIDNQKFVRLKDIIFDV
Experiment: FRET-based high-throughput screening of inhibitors for Rlig1-AMP
Assay type: biochemical
Details: sheet HTS hits; difference of raw data w/o and w enzyme
Listed below: 1-D Distance values for each entry.
Give the figure by itself; no unit, no explanation.

Example entries begin here.
molecule	observed
C/C1=C2/[N-][C@H]([C@H](CC(N)=O)[C@@]2(C)CCC(=O)NC[C@H](C)OP(=O)([O-])O[C@H]2[C@@H](O)[C@@H](n3cnc4cc(C)c(C)cc43)O[C@@H]2CO)[C@]2(C)N=C(/C(C)=C3N=C(/C=C4N=C1[C@@H](CCC(N)=O)C\4(C)C)[C@@H](CCC(N)=O)[C@]\3(C)CC(N)=O)[C@@H](CCC(N)=O)[C@]2(C)CC(N)=O.[CH3-].[Co+3]	977
CC1=NN(c2ccc(C)c(C)c2)C(=O)/C1=N\Nc1cccc(-c2cccc(C(=O)O)c2)c1O.NCCO.NCCO	680
COc1cccc2c1C(=O)c1c(O)c3c(c(O)c1C2=O)C[C@@](O)(C(C)=O)C[C@@H]3O[C@H]1C[C@H](N)[C@H](O)[C@H](C)O1.Cl [Daunorubicin (hydrochloride)]	667
COc1cc(S(=O)(=O)[O-])ccc1O.[K+]	1427
CC(C)(c1ccc(O)cc1)c1ccc(OCc2cccc(COc3ccc(C(=N)N)cc3)c2)cc1.Cl [BIIL-260 (hydrochloride)]	216

query: State the recorded 1-D Distance for this entry: COc1cc(/C=C(\C#N)C(=O)c2ccc(O)c(O)c2)cc(I)c1O
result: 515

query: State the recorded 1-D Distance for this entry: COc1cccc2c1C(=N)c1c(O)c3c(c(O)c1C2=O)C[C@@](O)(C(C)=O)C[C@@H]3O[C@H]1C[C@H](N)[C@H](O)[C@H](C)O1.Cl [5-Iminodaunorubicin (hydrochloride)]
result: 802

query: State the recorded 1-D Distance for this entry: [N-]=[N+]=NCCOCCOCCOCCN(CCOCCOCCN)CCOCCOCCOCCN=[N+]=[N-] [N-(Amino-PEG2)-N-bis(PEG3-azide)]
result: 1919

query: State the recorded 1-D Distance for this entry: CO[C@H]1/C=C/O[C@@]2(C)Oc3c(C)c(O)c4c(O)c(c(/C=N/N5CCN(C6CCCC6)CC5)c(O)c4c3C2=O)NC(=O)/C(C)=C\C=C\[C@H](C)[C@H](O)[C@@H](C)[C@@H](O)[C@@H](C)[C@H](OC(C)=O)[C@@H]1C
result: 1003

query: State the recorded 1-D Distance for this entry: CN(C)C/C=C/C(=O)Nc1ccc(C(=O)Nc2cccc(Nc3cc(-c4c[nH]c5ccccc45)ncn3)c2)cc1 [THZ-P1-2]
result: 656

====

Test: Cell viability assay of HEK293 cells treated with inhibitors and menadione
Format: cell-based, human
Details: human, HEK293 cells, 15 µM compound, w/o Menadione, 20240508 plate 013, DMSO Ko no Mendione = 100
parameter-measured: viability at 15 µM

Example entries begin here.
Nc1nccc(Nc2ccc(NC(=O)c3ccc(Nc4ncnc5ccccc45)cc3)cc2)n1 99.5%
Nc1cc(Nc2ccc(NC(=O)c3ccc(Nc4ccnc5ccccc45)cc3)cc2)ccn1 99.3%

# context switch: different compound, same viability at 15 µM
query: State the recorded viability at 15 µM for this entry: Cc1cc(Nc2ccc(NC(=O)c3ccc(Nc4ncnc5ccccc45)cc3)cc2)nc(N)n1
result: 92.3%
